tested on: SN12C renal; test: NCI-60 one-dose screen, 48 h; conditions: 10 µM unless noted
Compounds without any hit were thinned out: in the full panel of roughly 83,000, 20% have a hit. The source made the active and inactive calls. How the source made its calls: active means growth percent below 10; inactive means the rest.
Field 'call' accepts TRUE = active, FALSE = inactive

Exercise: Name the outcome recorded for O=C(O)C#Cc1ccc(Cl)cc1 in the assay.
Solution: FALSE

Exercise: Name the outcome recorded for N#Cc1c(N)nc2c(c(-c3ccc(Cl)cc3)nn2-c2ccccc2)c1C#N in the assay.
Solution: FALSE

Exercise: Name the outcome recorded for N#Cc1c[nH]n2ccnc12 in the assay.
Solution: FALSE

Exercise: Name the outcome recorded for O=C1C=CC(=O)N1Cc1ccco1 in the assay.
Solution: FALSE
